Values were extracted from ChEMBL document CHEMBL1132963.

Can you tell me K ass for the items I'm about to list?
Biological target: Prothrombin (Homo sapiens) (UniProt P00734)
Experiment: Tested for inhibition of thrombin.

Look up K ass for this compound: `COc1ccc(C(=O)Nc2ccccc2NC(=O)c2cccc(C(=N)N)c2)cc1` 270000 l M-1

GET /values?readout=K ass&item= `CC(C)(C)c1ccc(C(=O)Nc2cc(C(=O)O)ccc2NC(=O)c2cccc(C(=N)N)c2)cc1` 650000 l M-1

Consider the compound shown here: `CC(C)c1ccc(C(=O)Nc2cc(OCC(=O)O)ccc2NC(=O)c2cccc(C(=N)N)c2)cc1` What is its recorded K ass? 800000 l M-1

Item `CC(C)(C)c1ccc(C(=O)Nc2ccccc2NC(=O)c2cccc(C(=N)N)c2)cc1` has what recorded K ass? 3e+06 l M-1

----------
Target: Thrombin and coagulation factor X (Homo sapiens) (UniProt P00734+P00742)
Sequence (P00742 whole entry, looked up, other chains not shown): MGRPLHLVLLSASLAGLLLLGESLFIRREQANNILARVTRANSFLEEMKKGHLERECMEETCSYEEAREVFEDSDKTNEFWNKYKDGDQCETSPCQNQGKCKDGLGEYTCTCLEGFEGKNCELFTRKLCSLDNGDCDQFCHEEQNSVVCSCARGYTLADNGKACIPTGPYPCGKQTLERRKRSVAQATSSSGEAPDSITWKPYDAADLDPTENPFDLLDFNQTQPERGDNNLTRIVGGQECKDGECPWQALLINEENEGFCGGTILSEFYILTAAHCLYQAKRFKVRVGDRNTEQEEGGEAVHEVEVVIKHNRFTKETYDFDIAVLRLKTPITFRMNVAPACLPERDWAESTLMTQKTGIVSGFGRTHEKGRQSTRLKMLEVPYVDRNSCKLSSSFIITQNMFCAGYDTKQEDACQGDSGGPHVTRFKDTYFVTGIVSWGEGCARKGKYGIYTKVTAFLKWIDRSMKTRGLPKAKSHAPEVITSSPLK
Assay: Selectivity as the ratio of Kass value towards fXa to that of thrombin.
Type: protein assay
quantity-measured: Ratio
Reply briefly: the number, and no unit.

Form field: reported Ratio of `CC(C)(C)c1ccc(C(=O)Nc2cc(C(=O)O)ccc2NC(=O)c2cccc(C(=N)N)c2)cc1` 720

Fill in: Ratio of `CC(C)c1ccc(C(=O)Nc2cc(OCC(=O)O)ccc2NC(=O)c2cccc(C(=N)N)c2)cc1` is ___ 430

// Ratio lookup, key: `CC(C)(C)c1ccc(C(=O)Nc2ccccc2NC(=O)c2cccc(C(=N)N)c2)cc1` 83

Fill in the blank: the reported Ratio of `COc1ccc(C(=O)Nc2ccccc2NC(=O)c2cccc(C(=N)N)c2)cc1` is ____. 56

----------
Target: Coagulation factor X (Homo sapiens) (UniProt P00742)
Sequence (P00742 41-179 limits assumed): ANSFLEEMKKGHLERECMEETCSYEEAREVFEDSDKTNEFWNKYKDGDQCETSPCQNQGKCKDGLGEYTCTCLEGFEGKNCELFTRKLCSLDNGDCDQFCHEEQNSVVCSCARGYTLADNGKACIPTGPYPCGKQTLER
Sequence (P00742 235-488 limits assumed): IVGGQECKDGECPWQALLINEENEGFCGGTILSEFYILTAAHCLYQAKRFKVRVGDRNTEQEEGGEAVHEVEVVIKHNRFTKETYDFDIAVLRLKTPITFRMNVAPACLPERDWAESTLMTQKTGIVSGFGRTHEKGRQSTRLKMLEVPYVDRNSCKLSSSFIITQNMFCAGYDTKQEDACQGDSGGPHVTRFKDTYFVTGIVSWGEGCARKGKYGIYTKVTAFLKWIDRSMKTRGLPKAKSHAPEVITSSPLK
Assay: Apparent association constant against human Coagulation factor X.
quantity-measured: K ass

Dear colleague, I am looking for the recorded K ass of the following compound: `CC(C)(C)c1ccc(C(=O)Nc2ccc(C(=O)O)cc2NC(=O)c2cccc(C(=N)N)c2)cc1` 5.4e+07 l M-1

Fill in the blank: the reported K ass of `CCOC(=O)COc1ccc(NC(=O)c2cccc(C(=N)N)c2)c(NC(=O)c2ccc(C(C)C)cc2)c1` is ____. 1.6e+08 l M-1

Quick one: K ass of CC(C)(C)c1ccc(C(=O)Nc2ccccc2NC(=O)C2CCCN(C(=N)N)C2)cc1 (centres undefined) ? 1.2e+07 l M-1

What value of K ass has been recorded for this entry: COc1ccc(C(=O)Nc2ccccc2NC(=O)C2CCCN(C(=N)N)C2)cc1 (centres undefined) 1e+06 l M-1

Find the recorded K ass belonging to `COc1ccc(NC(=O)c2ccccc2NC(=O)c2cccc(C(=N)N)c2)cc1` and report it. 1.7e+06 l M-1

Dear colleague, I am looking for the recorded K ass of the following compound: `CCOc1ccc(C(=O)Nc2ccccc2NC(=O)c2cccc(C(=N)N)c2)cc1` 2.9e+07 l M-1

Recorded K ass of `CC(C)(C)c1ccc(C(=O)Nc2ccccc2NC(=O)c2cccc(C(=N)N)c2)cc1` , please. 2.5e+08 l M-1

Look up K ass: `COc1ccc(C(=O)Nc2ccc(C(=N)N)cc2NC(=O)c2ccc(OC)cc2)cc1` 270000 l M-1

Sample `CC(C)c1ccc(C(=O)Nc2cc(O)ccc2NC(=O)c2cccc(C(=N)N)c2)cc1` — what was its K ass? 2.3e+08 l M-1
